Taken from patent US20230233569A1.

- target: NRAS G12C (Homo sapiens, UniProt P01111+P62937, G12C)
- Sequence (P01111 whole entry G12C): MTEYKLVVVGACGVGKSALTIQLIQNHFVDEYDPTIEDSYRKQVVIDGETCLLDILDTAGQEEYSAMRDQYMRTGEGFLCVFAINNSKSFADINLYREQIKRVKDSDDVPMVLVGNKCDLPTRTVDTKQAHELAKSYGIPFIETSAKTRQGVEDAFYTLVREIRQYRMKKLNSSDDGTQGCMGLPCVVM
- Sequence (P62937 whole entry): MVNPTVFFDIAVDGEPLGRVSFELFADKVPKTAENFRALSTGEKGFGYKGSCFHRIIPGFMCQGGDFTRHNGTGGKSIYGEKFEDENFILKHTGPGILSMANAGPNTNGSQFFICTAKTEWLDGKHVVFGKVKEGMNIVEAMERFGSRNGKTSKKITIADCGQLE
- experiment-description: Disruption of BRAF RBD interaction with Ras (FRET / MOA assay, with Cyclophilin A)
- Assay type: biochemical
- assay-conditions: NRAS G12C; read-out: NRAS G12C FRET data IC50
// reported IC50 per item
readout: IC50

compound="CC#C[S+]([O-])N1CC[C@H](C(=O)N(C)[C@H](C(=O)N[C@H]2Cc3cccc(c3)-c3ccc4c(c3)c(c(-c3cccnc3[C@H](C)OC)n4CC)CC(C)(C)COC(=O)[C@@H]3CCCN(N3)C2=O)C2CCCC2)C1 (some centres unmarked)" readout=IC50 experimental_value="100 to 1000 nM"
compound=CCn1c(-c2cccnc2[C@H](C)OC)c2c3cc(ccc31)-c1csc(n1)C[C@H](NC(=O)[C@H](C(C)C)N(C)C(=O)N1CC([C@H](C)NC)C1)C(=O)N1CCC[C@H](N1)C(=O)OCC(C)(C)C2 readout=IC50 experimental_value="100 to 1000 nM"
compound="CCn1c(-c2cccnc2[C@H](C)OC)c2c3cc(ccc31)-c1cc(O)cc(c1)C[C@H](NC(=O)[C@H](C(C)C)N(C)C(=O)C1NCCC1C(C)C)C(=O)N1CCC[C@H](N1)C(=O)OCC(C)(C)C2 (some centres unmarked)" readout=IC50 experimental_value="100 to 1000 nM"
compound=CCn1c(-c2cccnc2[C@H](C)OC)c2c3cc(ccc31)-c1csc(n1)C[C@H](NC(=O)[C@H](C(C)C)N(C)C(=O)N1CC3(CN(C)CCO3)C1)C(=O)N1CCC[C@H](N1)C(=O)OCC(C)(C)C2 readout=IC50 experimental_value="100 to 1000 nM"
compound=C=CC(=O)N1CCO[C@H]2CN(C(=O)N(C)[C@H](C(=O)N[C@H]3CN4CCC=C(C4)c4ccc5c(c4)c(c(-c4cccnc4[C@H](C)OC)n5CC)CC(C)(C)COC(=O)[C@@H]4CCCN(N4)C3=O)C(C)C)C[C@H]21 readout=IC50 experimental_value="10 to 100 nM"
compound=CCn1c(-c2cccnc2[C@H](C)OC)c2c3cc(cnc31)-c1csc(n1)C[C@H](NC(=O)[C@H](C(C)C)N(C)C(=O)N1CC(OC)C1)C(=O)N1CCC[C@H](N1)C(=O)OCC(C)(C)C2 readout=IC50 experimental_value="100 to 1000 nM"
compound=CCn1c(-c2cnccc2COC)c2c3cc(ccc31)-c1cc(O)cc(c1)C[C@H](NC(=O)[C@@H](OC(=O)N(C)C)C(C)C)C(=O)N1CCC[C@H](N1)C(=O)OCC(C)(C)C2 readout=IC50 experimental_value="1000 to 10000 nM"
compound="CCn1c(-c2cccnc2[C@H](C)OC)c2c3cc(ccc31)-c1csc(n1)C[C@H](NC(=O)[C@H](C(C)C)N(C)C(=O)N1CCC3(CN(C)C3)C1)C(=O)N1CCC[C@H](N1)C(=O)OCC(C)(C)C2 (atropisomer, axis not shown)" readout=IC50 experimental_value="10 to 100 nM"
compound=CCn1c(-c2cccnc2[C@H](C)OC)c2c3cc(ccc31)-c1cccc(c1)C[C@H](NC(=O)[C@H](C(C)C)N1CC[C@]3(CCN(C(=O)C#C[C@@H]4COCCN4C4COC4)C3)C1=O)C(=O)N1CCC[C@H](N1)C(=O)OCC(C)(C)C2 readout=IC50 experimental_value="100 to 1000 nM"
compound=CCn1c(-c2cccnc2[C@H](C)OC)c2c3cc(ccc31)-c1csc(n1)C[C@H](NC(=O)[C@H](C(C)C)N(C)C(=O)N1CC3CC(C1)N3C)C(=O)N1CCC[C@H](N1)C(=O)OCC(C)(C)C2 readout=IC50 experimental_value="100 to 1000 nM"
compound=CCn1c(-c2cccnc2[C@H](C)OC)c2c3cc(ccc31)-c1csc(n1)C[C@H](NC(=O)c1ccccn1)C(=O)N1CCC[C@H](N1)C(=O)OCC(C)(C)C2 readout=IC50 experimental_value="100 to 1000 nM"
compound=CCn1c(-c2cccnc2[C@H](C)OC)c2c3cc(ccc31)-c1cc(O)cc(c1)C[C@H](NC(=O)[C@H](C(C)C)N(C)C(=O)C1CNC1)C(=O)N1CCC[C@H](N1)C(=O)OCC(C)(C)C2 readout=IC50 experimental_value="10 to 100 nM"
compound="CCn1c(-c2cccnc2[C@H](C)OC)c2c3cc(ccc31)-c1csc(n1)C[C@H](NC(=O)[C@H](C(C)C)N(C)C(=O)N1CC([C@@H](C)NC)C1)C(=O)N1CCC[C@H](N1)C(=O)OCC(C)(C)C2 (atropisomer, axis not shown)" readout=IC50 experimental_value="10 to 100 nM"
compound=CCn1c(-c2cccnc2[C@H](C)OC)c2c3cc(ccc31)-c1csc(n1)C[C@H](NC(=O)[C@H](C(C)C)N(C)C(=O)N1CCN3CCOC[C@H]3C1)C(=O)N1CCC[C@H](N1)C(=O)OCC(C)(C)C2 readout=IC50 experimental_value="100 to 1000 nM"
compound=CCn1c(-c2cccnc2[C@H](C)OC)c2c3cc(ccc31)N1CCO[C@@H](C[C@H](NC(=O)[C@H](C(C)C)N(C)C(=O)[C@@]3(F)CCN(C(=O)C#CC(C)(C)N4CCC4)C3)C(=O)N3CCC[C@H](N3)C(=O)OCC(C)(C)C2)C1 readout=IC50 experimental_value="10 to 100 nM"
compound="CCN1CC(C(=O)N(C)[C@H](C(=O)N[C@H]2Cc3cc(O)cc(c3)-c3ccc4c(c3)c(c(-c3cccnc3[C@H](C)OC)n4CC)CC(C)(C)COC(=O)[C@@H]3CCCN(N3)C2=O)C(C)C)CC1=O (some centres unmarked)" readout=IC50 experimental_value="10 to 100 nM"
compound="CCn1c(-c2cccnc2[C@H](C)OC)c2c3cc(ccc31)-c1cc(C#N)cc(c1)C[C@H](NC(=O)[C@H](C(C)C)N(C)C(C)=O)C(=O)N1CCC[C@H](N1)C(=O)OCC(C)(C)C2 (atropisomer, axis not shown)" readout=IC50 experimental_value="> 10000 nM"
